# System: Proteus vulgaris HX 19
# test: Minimum Inhibitory Concentration, Proteus vulgaris HX 19
# Type: cell-based
# assay-setup: HX19; Proteus vulgaris HX 19; read-out: Minimum Inhibitory Concentration
As shown below, each of these compounds has a reported MIC value.
Quote the value and follow it with the unit of measurement.

Cn1nnnc1SCC1=C(C(=O)O)N2C(=O)C(NC(=O)C(NC(=O)c3cnc4cccnc4c3O)c3ccc(N)cc3)C2SC1 (stereo not drawn)
0.1 µg/mL

Fill in MIC for record CSc1cnc2c(O)c(C(=O)N[C@@H](C(=O)NC3C(=O)N4C(C(=O)O)=C(CSc5nnnn5C)CSC34)c3ccc(O)cc3)cnc2n1 (stereo partly drawn)
1.56 µg/mL

Indicate its recorded MIC; the compound in question is Cn1nnnc1SCC1=C(C(=O)O)N2C(=O)C(NC(=O)C(NC(=O)c3cnc4cncnc4c3O)c3cccc(N)c3)C2SC1 (stereo not drawn)
0.2 µg/mL

* * *

Parameter: MIC. Scope: all listed entries.
# Test system: Proteus vulgaris HX 19
# test: Minimum Inhibitory Concentration, Proteus vulgaris HX 19
# Assay type: cell-based
# assay-setup: HX19; Proteus vulgaris HX 19; read-out: Minimum Inhibitory Concentration
Please answer in the form of a number followed by its unit of measurement.

State its MIC for this compound: NC(=O)Nc1ccc([C@@H](NC(=O)c2cnccc2O)C(=O)N[C@@H]2C(=O)N3C(C(=O)O)=C(CSc4cnn[nH]4)CS[C@H]23)cc1
0.1 µg/mL

Give reported MIC value for Cc1nnc(SCC2=C(C(=O)O)N3C(=O)[C@@H](NC(=O)[C@H](NC(=O)c4cnc5cccnc5c4O)c4ccc(NC(N)=O)cc4)[C@H]3SC2)s1
0.1 µg/mL

* * *

# System: Proteus vulgaris HX 19
# test: Minimum Inhibitory Concentration, Proteus vulgaris HX 19
# Assay type: cell-based
# assay-setup: HX19; Proteus vulgaris HX 19; read-out: Minimum Inhibitory Concentration
endpoint: MIC (µg/mL)
Please reply with the bare figure in µg/mL and do not write the unit itself.

Example cases with answers are listed next.
Cc1nnc(SCC2=C(C(=O)O)N3C(=O)C(NC(=O)C(NC(=O)c4cnc5sccc5c4O)c4cccc(N)c4)C3SC2)s1 (stereo not drawn)
0.39
CSc1ccc2ncc(C(=O)N[C@@H](C(=O)N[C@@H]3C(=O)N4C(C(=O)O)=C(COC(C)=O)CS[C@H]34)c3cccc(NC(N)=O)c3)c(O)c2n1
0.78
Cn1nnnc1SCC1=C(C(=O)O)N2C(=O)C(NC(=O)[C@H](NC(=O)c3ccnnc3O)c3ccc(O)cc3)C2SC1 (stereo partly drawn)
0.39
Nc1cccc(C(NC(=O)c2cnccc2O)C(=O)NC2C(=O)N3C(C(=O)O)=C(CSc4ccc(O)nn4)CSC23)c1 (stereo not drawn)
0.2

Provide MIC value for the following molecule: Nc1cccc(C(NC(=O)c2ccnnc2O)C(=O)NC2C(=O)N3C(C(=O)O)=C(CSc4nncs4)CSC23)c1 (stereo not drawn)
0.1

Report MIC for Cc1ccc2c(O)c(C(=O)NC(C(=O)NC3C(=O)N4C(C(=O)O)=C(CSc5nnn(C)n5)CSC34)c3cccc(N)c3)cnc2n1 (stereo not drawn)
0.1

Identify MIC associated with the molecule COc1cc(C(NC(=O)c2cnc3cccnc3c2O)C(=O)NC2C(=O)N3C(C(=O)O)=C(CSc4nnc(CO)s4)CSC23)ccc1O (stereo not drawn)
0.2

For the molecule Cc1nc2ncc(C(=O)NC(C(=O)NC3C(=O)N4C(C(=O)O)=C(CSc5nnnn5C)CSC34)c3cccc(NC(N)=O)c3)c(O)c2nc1C (stereo not drawn) , report MIC.
0.2

Name the recorded MIC of the molecule listed here: Cn1nnnc1SCC1=C(C(=O)O)N2C(=O)C(NC(=O)C(NC(=O)c3cnccc3O)c3cccc(N)c3)C2SC1 (stereo not drawn)
0.1

* * *

# Test system: Proteus vulgaris HX 19
# test: Minimum Inhibitory Concentration, Proteus vulgaris HX 19
# Assay type: cell-based
# assay-setup: HX19; Proteus vulgaris HX 19; read-out: Minimum Inhibitory Concentration
endpoint: MIC (µg/mL)
Quick note: give the figure in µg/mL, leave out the unit.

CSc1ncc2c(O)c(C(=O)NC(C(=O)NC3C(=O)N4C(C(=O)O)=C(CSc5nnnn5C)CSC34)c3ccc(O)cc3)nnc2n1 (stereo not shown) [Example 173]
0.78
Cn1nnnc1SCC1=C(C(=O)O)N2C(=O)C(NC(=O)C(NC(=O)c3cnc4cccnc4c3O)c3ccc(O)c(O)c3)C2SC1 (stereo not shown) [Example 167]
0.2
Cn1nnnc1SCC1=C(C(=O)O)N2C(=O)C(NC(=O)C(NC(=O)c3cnc4cccnc4c3O)c3cccc(N)c3)C2SC1 (stereo not shown) [Example 68]
0.1
O=C(O)C1=C(CSc2nnc(CO)s2)CSC2C(NC(=O)C(NC(=O)c3cnc4cccnc4c3O)c3cccc(O)c3)C(=O)N12 (stereo not shown) [Example 181]
0.2
COc1ccc2ncc(C(=O)N[C@@H](C(=O)N[C@@H]3C(=O)N4C(C(=O)O)=C(COC(C)=O)CS[C@H]34)c3cccc(NC(N)=O)c3)c(O)c2n1 [Example 33]
0.78
Nc1ccc(C(NC(=O)c2cnccc2O)C(=O)NC2C(=O)N3C(C(=O)O)=C(CSc4nnc(CO)s4)CSC23)cc1 (stereo not shown) [Example 83]
0.2

Annotate the molecule CC(=O)OCC1=C(C(=O)O)N2C(=O)[C@@H](NC(=O)[C@H](NC(=O)c3cncnc3O)c3ccc(NC(N)=O)cc3)[C@H]2SC1 [Example 5] with its measured MIC.
0.39

* * *

# Test system: Proteus vulgaris HX 19
# test: Minimum Inhibitory Concentration, Proteus vulgaris HX 19
# Type: cell-based
# assay-setup: HX19; Proteus vulgaris HX 19; read-out: Minimum Inhibitory Concentration
This section presents compounds with their documented MIC values.
Express your answer in µg/mL, writing the number without its unit.

Nc1cccc(C(NC(=O)c2cnc3cccnc3c2O)C(=O)NC2C(=O)N3C(C(=O)O)=C(CSc4nnc(CO)s4)CSC23)c1 (stereo not drawn)
0.1

Provide only the value of recorded MIC for CN(C)c1ccc2ncc(C(=O)NC(C(=O)NC3C(=O)N4C(C(=O)O)=C(CSc5nnnn5C)CSC34)c3ccc(O)cc3)c(O)c2n1 (stereo not drawn)
0.2

Supply recorded MIC for NC(=O)Nc1ccc([C@@H](NC(=O)c2ccnnc2O)C(=O)N[C@@H]2C(=O)N3C(C(=O)O)=C(CSc4cnn[nH]4)CS[C@H]23)cc1 here.
0.2
